Experiment: Evaluation of solubility in methyl ethyl ketone (MEK)
Assay type: physicochemical
Parameters: key: A: 1 g or more of the compound was stably dissolved in 300 g of MEK; B: 1 g was not dissolved in 300 g of MEK; X: decomposition was observed by measuring the absorption spectrum after the dissolution
Conditions: stirred at room temperature for 30 minutes
testReadout: Solubility in solvent

compound	measured
CCCCN(CCCC)c1ccc(N(c2ccc(N(CCCC)CCCC)cc2)c2ccc([N+](=C3C=CC(=[N+](c4ccc(N(c5ccc(N(CCCC)CCCC)cc5)c5ccc(N(CCCC)CCCC)cc5)cc4)c4ccc(N(c5ccc(N(CCCC)CCCC)cc5)c5ccc(N(CCCC)CCCC)cc5)cc4)C=C3)c3ccc(N(c4ccc(N(CCCC)CCCC)cc4)c4ccc(N(CCCC)CCCC)cc4)cc3)cc2)cc1.[F][Sb-]([F])([F])([F])([F])[F].[F][Sb-]([F])([F])([F])([F])[F] [Comparative compound 3, reference compound]	X

Hey, just so you know, these numbers are from patent US20260022246A1.
